test system: SARS-CoV-2 infection; assay: Retrospective cohort (BJC Healthcare): antidepressant exposure and ED or hospital encounter within 30 days; assay type: in vivo, human; details: vs No Antidepressant (Ref); logistic regression
endpoint: Unadjusted Odds Ratio, ED or hospital encounter within 30 days
// response body must contain only the number

compound	test.result
N#Cc1ccc2[nH]cc(CCCCN3CCN(c4ccc5oc(C(N)=O)cc5c4)CC3)c2c1 [Vilazodone]	3.91
CNCCCN1c2ccccc2CCc2ccccc21 [desipramine]	1.04
O=c1n(CCCN2CCN(c3cccc(Cl)c3)CC2)nc2ccccn12 [Trazodone]	2.74
CN(C)CCC=C1c2ccccc2COc2ccccc21 [Doxepin]	3.55
Fc1ccc([C@@H]2CCNC[C@H]2COc2ccc3c(c2)OCO3)cc1 [paroxetine]	1.67

Lab note: next compound to report on.
Asked: Fill in: Unadjusted Odds Ratio, ED or hospital encounter within 30 days of CN(C)CCC=C1c2ccccc2CCc2ccccc21 [amitriptyline] is ___
Given back: 2.90
